Target: BRM (Homo sapiens, UniProt P51531)
Construct: made in house; host or cells: High Five insect cells
Sequence (P51531 whole entry): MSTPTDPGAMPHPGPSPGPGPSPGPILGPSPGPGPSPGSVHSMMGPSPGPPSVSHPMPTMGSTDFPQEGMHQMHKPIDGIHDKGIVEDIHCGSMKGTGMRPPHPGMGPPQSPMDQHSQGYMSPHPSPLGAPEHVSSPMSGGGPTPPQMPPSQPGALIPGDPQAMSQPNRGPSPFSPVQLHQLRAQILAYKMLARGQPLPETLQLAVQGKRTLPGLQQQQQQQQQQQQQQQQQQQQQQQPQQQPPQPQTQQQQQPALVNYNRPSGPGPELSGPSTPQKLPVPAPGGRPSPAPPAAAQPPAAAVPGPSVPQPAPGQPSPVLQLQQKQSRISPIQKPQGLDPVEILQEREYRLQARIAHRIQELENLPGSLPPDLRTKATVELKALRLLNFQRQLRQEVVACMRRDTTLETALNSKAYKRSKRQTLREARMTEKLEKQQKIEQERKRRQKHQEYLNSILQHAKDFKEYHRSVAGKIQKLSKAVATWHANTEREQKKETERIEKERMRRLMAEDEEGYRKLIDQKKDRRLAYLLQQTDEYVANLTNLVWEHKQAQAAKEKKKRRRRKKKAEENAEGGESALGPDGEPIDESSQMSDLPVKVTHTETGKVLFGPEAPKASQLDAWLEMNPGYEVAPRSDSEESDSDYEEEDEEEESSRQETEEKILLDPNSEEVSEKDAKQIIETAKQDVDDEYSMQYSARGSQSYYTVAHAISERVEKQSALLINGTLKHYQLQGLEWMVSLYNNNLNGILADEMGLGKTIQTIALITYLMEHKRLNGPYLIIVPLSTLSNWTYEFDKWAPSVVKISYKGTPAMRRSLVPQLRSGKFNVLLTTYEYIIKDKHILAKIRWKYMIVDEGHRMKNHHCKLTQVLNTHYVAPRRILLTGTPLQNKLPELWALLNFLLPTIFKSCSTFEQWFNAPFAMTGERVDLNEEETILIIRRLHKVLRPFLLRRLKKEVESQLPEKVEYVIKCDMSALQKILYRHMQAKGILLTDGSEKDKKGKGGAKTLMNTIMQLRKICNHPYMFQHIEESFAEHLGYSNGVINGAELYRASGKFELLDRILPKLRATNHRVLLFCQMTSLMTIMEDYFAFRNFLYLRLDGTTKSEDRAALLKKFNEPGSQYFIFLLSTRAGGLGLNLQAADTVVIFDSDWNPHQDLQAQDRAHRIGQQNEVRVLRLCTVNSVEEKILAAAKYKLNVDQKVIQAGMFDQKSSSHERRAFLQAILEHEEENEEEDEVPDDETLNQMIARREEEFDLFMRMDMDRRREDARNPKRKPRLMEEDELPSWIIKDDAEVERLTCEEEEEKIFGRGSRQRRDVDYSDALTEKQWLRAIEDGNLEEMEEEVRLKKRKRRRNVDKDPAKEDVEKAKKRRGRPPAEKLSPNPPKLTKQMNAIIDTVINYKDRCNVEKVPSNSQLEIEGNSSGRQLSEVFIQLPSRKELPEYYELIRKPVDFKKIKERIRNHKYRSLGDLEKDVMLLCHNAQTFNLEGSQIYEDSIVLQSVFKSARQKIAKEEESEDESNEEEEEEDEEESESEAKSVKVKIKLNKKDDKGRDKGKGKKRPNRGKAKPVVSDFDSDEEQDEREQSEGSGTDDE
Assay: ATPase catalytic activity assay (ADP-Glo), BRM
Format: biochemical
Conditions: ATPase assay, selectivity BRG1/BRM, Table 10
Test Readout: Ratio (BRG1 IC50 (μM) divided by BRM IC50 (μM))

Examples with their reported Ratio (BRG1 IC50 (μM) divided by BRM IC50 (μM)) follow.
C#Cc1cc(C(=O)NCc2cc3nc(-c4cccc(N5C[C@@H](C)O[C@@H](C)C5)n4)ccc3cn2)cc2c1OCC[C@@H](F)S2(=O)=O [Compound 315]; 43.60
O=C(NCc1cc2nc(N3CCOc4cc(N5CCC5)cnc43)ccc2cn1)c1cc(F)c2c(c1)S(=O)(=O)[C@@H](F)COC2 [Compound 48]; 13.42
C[C@@H]1CCN1c1cnc2c(c1)CCCN2c1ccc2cnc(CNC(=O)c3cc(F)c4c(c3)S(=O)(=O)[C@@H](F)CCO4)cc2n1 [Compound 236]; 21.61

(A) O=C(NCc1cc2nc(N3CCOc4cc(N5CCC[C@H](F)C5)cnc43)ccc2cn1)c1cc(F)c2c(c1)S(=O)(=O)[C@@H](F)CCO2 [Compound 286]
(B) CCOc1ccnc2c1CCCN2c1ccc2cnc(CNC(=O)c3cc(F)c4c(c3)S(=O)(=O)[C@@H](F)CCO4)cc2n1 [Compound 4]
Please indicate which entry, A or B , has the lower recorded Ratio (BRG1 IC50 (μM) divided by BRM IC50 (μM)) value. Your choice should be expressed through its label.
B

###

Target: BRM (Homo sapiens, UniProt P51531)
Construct: made in house; host or cells: High Five insect cells
Assay: ATPase catalytic activity assay (ADP-Glo), BRM
Type: biochemical
Settings: ATPase assay, selectivity BRG1/BRM, Table 10
Test Readout: Ratio (BRG1 IC50 (μM) divided by BRM IC50 (μM))

O=C(NCc1cc2nc(N3CCCc4c(OC5CC5)ccnc43)ccc2cn1)c1cc(F)c2c(c1)S(=O)(=O)[C@@H](F)CCO2; 15.43
COc1nc(-c2ccc3cnc(CNC(=O)c4cc(Cl)c5c(c4)S(=O)(=O)[C@@H](F)COC5)cc3n2)ccc1C(F)F; 18.66
[2H]C([2H])([2H])Oc1nc(C(F)F)ccc1-c1ccc2cnc(CNC(=O)c3cc(F)c4c(c3)S(=O)(=O)[C@@H](F)CCO4)cc2n1; 23.88
COc1cc(F)ccc1-c1ccc2cnc(CNC(=O)c3cc(F)c4c(c3)S(=O)(=O)[C@@H](F)CCO4)cc2n1 [Compound 158]; 17.08
O=C(NCc1cc2nc(N3CCOc4ccc(N5CC(F)(F)C5)nc43)ccc2cn1)c1cc(F)c2c(c1)S(=O)(=O)[C@@H](F)CCO2; 21.58

###

Biological target: BRM (Homo sapiens, UniProt P51531)
Construct: made in house; host or cells: High Five insect cells
Assay: ATPase catalytic activity assay (ADP-Glo), BRM
Format: biochemical
Settings: ATPase assay, selectivity BRG1/BRM, Table 10
Test Readout: Ratio (BRG1 IC50 (μM) divided by BRM IC50 (μM))

(a) O=C(NCc1cc2nc(N3CCOc4ccc([C@H]5C[C@@H]5C(F)F)nc43)ccc2cn1)c1cc(F)c2c(c1)S(=O)(=O)[C@@H](F)COC2 [Compound 26]
(b) C[C@H]1C[C@@H]1c1ccc2c(n1)N(c1ccc3cnc(CNC(=O)c4cc(F)c5c(c4)S(=O)(=O)[C@@H](F)COC5)cc3n1)CCO2 [Compound 13]
Choose between a and b : whose measured Ratio (BRG1 IC50 (μM) divided by BRM IC50 (μM)) value is numerically larger? Your choice should be expressed through its label.
a
